Where do the numbers come from? From patent US8519149B2.

- Measurement target: Recombinant human mPGES-1 (Homo sapiens, UniProt O14684)
- Sequence (O14684 1-152): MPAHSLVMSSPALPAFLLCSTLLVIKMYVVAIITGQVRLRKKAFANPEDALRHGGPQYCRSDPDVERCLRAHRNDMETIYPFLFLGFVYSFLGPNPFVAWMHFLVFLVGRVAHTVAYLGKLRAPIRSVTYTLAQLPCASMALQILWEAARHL
- Measurement description: In-vitro mPGES-1 enzyme inhibition assay (PGE2 formation from PGH2, HTRF detection)
- Format: biochemical
- Particulars: 1 μM test compound; recombinant human mPGES-1 microsomal fraction; read-out: Percentage inhibition at 1 μM
Endpoint: inhibition at 1 µM (%)

CC1(C)Cc2c(c(C(=O)Nc3ccc(Br)cc3)cc3nc(Nc4c(Cl)cncc4Cl)[nH]c23)O1 [Example-8] : 92.6
CC1(C)Cc2c(c(C(=O)Nc3cc(C(F)(F)F)ccc3F)cc3nc(Nc4c(Cl)cncc4Cl)[nH]c23)O1 [Example-195] : 98.8

(I) CC1(C)Cc2c(c(C(=O)Nc3ccccc3F)cc3nc(Nc4c(Cl)cccc4Cl)[nH]c23)O1 [Example-30]
(II) CC1(C)Cc2c(c(C(=O)Nc3nc(C(C)(C)C)cs3)cc3nc(Nc4c(F)cccc4Cl)[nH]c23)O1 [Example-53]
# input For the two items I and II , which reports the higher inhibition at 1 µM value? Write down the label of the entry you select.
# output I
(I: 93.8%, II: 47.2%)
